System: CD2F1 mice, L1210 leukemia ip, survival T/C
Experiment: NCI In Vivo Anticancer Drug Screen. Data for tumor model L1210 Leukemia (intraperitoneal) in CD2F1 (CDF1) mice
Settings: endpoint: mean survival time; dose: 25.0 mg/kg/injection; schedule: Q04DX003 (ip); vehicle: saline with Tween-80
Toxic doses and inconclusive results are not listed. The calls were made as follows: active = survival T/C of 150% or more; inactive = T/C below 125% in these data.
API: response.call in active, inactive

// below: answered compounds
QUERY: Record lookup: outcome of this test for COc1ccc2ccc[n+](C)c2c1 ?
RESULT: inactive

QUERY: Record lookup: outcome of this test for C=CC1CN2CCC1CC2C(O)c1ccnc2ccccc12 (configuration not stated) (tested in a mixture with another compound) ?
RESULT: inactive

QUERY: Record lookup: outcome of this test for Cc1cc(C)n(C(=S)[S-])n1.Cc1cc(C)n(C(=S)[S-])n1.[Pt+2] ?
RESULT: inactive

QUERY: Record lookup: outcome of this test for CCOC(=O)C(C#N)C(C(C)=O)C(=O)OCC (configuration not stated) ?
RESULT: inactive

QUERY: Record lookup: outcome of this test for Nc1c(Br)cc2c(c1Br)Cc1cc(Cl)ccc1-2 ?
RESULT: inactive

With those in mind, consider the next compound.
QUERY: Record lookup: outcome of this test for Cc1cccc([N+](=O)[O-])n1 ?
RESULT: inactive

* * *

As shown below, each of these molecules has a reported T/C value.
System: CD2F1 mice, L1210 leukemia ip, survival T/C
Assay: NCI In Vivo Anticancer Drug Screen. Data for tumor model L1210 Leukemia (intraperitoneal) in CD2F1 (CDF1) mice
Details: endpoint: mean survival time; dose: 400.0 mg/kg/injection; schedule: Q01DX001 (ip); vehicle: saline with Tween-80; higher = longer survival
Toxic doses and inconclusive results are not listed.

Worked set:
QUERY: Item: CN(C)C(=O)c1cc2ccccc2n1C Test system: CD2F1 mice, L1210 leukemia ip, survival T/C Read-out: T/C Value: ?
RESULT: 94 % of control

QUERY: Item: CN1CC2(Cc3ccccc3)c3ccccc3NC2(NC(=O)CCl)C1=O (stereo unspecified) Test system: CD2F1 mice, L1210 leukemia ip, survival T/C Read-out: T/C Value: ?
RESULT: 96 % of control

QUERY: Item: CCOC(=O)c1cnc(SC)nc1NCc1cccc(C)c1 Test system: CD2F1 mice, L1210 leukemia ip, survival T/C Read-out: T/C Value: ?
RESULT: 91 % of control

More entries:
QUERY: Item: CC(=O)NC(C)(C)Cc1ccccc1 Test system: CD2F1 mice, L1210 leukemia ip, survival T/C Read-out: T/C Value: ?
RESULT: 106 % of control

QUERY: Item: CS(=O)(=O)Cc1cnc(N)nc1-c1ccccc1 Test system: CD2F1 mice, L1210 leukemia ip, survival T/C Read-out: T/C Value: ?
RESULT: 94 % of control

QUERY: Item: O=P(c1ccccc1)(c1ccccc1)P(=O)(c1ccccc1)c1ccccc1 Test system: CD2F1 mice, L1210 leukemia ip, survival T/C Read-out: T/C Value: ?
RESULT: 96 % of control

QUERY: Item: COc1ccc(Cl)cc1NC(=O)N/N=C(\C)CC(C)C Test system: CD2F1 mice, L1210 leukemia ip, survival T/C Read-out: T/C Value: ?
RESULT: 101 % of control

QUERY: Item: O=C1CC(c2ccccc2)=NO1 Test system: CD2F1 mice, L1210 leukemia ip, survival T/C Read-out: T/C Value: ?
RESULT: 101 % of control
